Test system: SH-SY5Y
EXPERIMENT SUMMARY: Cytotoxicity against human SH-SY5Y cells
Assay type: functional, cell-based
PROPERTY NAME: pIC50
Quick note: pIC50 values are minus log10 of concentrations in mol/L.

Exam item: Which pIC50 is reported for this compound? COc1cc(N2CCC(N)CC2)ccc1Nc1ncc(Cl)c(-c2c[nH]c3ccccc23)n1
Marked response: 8.77

All values here come from ChEMBL document CHEMBL4376817.
